Value source: patent US9522945B2

set-up: species or system rats; settings: rat, in vivo, sc, 230 ug/kg;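 further: blood drawn at alternating time points, with three animals in each cohort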
result type: AUC∞ (ng·h/mL)
Could you give me the number in ng·h/mL? Just the number is fine.

Known results for molecules:
| molecule | AUC∞ (ng·h/mL) |
| --- | --- |
| CTP-OXM-CTP: oxyntomodulin with one CTP on the amino terminus and one on the carboxy terminus, SEQ ID NO: 9 (protein, CTP-OXM-CTP) MATGSRTSLLLAFGLLCLPWLQEGSASSSSKAPPPSLPSPSRLPGPSDTPILPQHSQGTFTSDYSKYLDSRRAQDFVQWLMNTKRNRNNIASSSSKAPPPSLPSPSRLPGPSDTPILPQ | 170.82 |
| OXM-CTP-CTP: oxyntomodulin with two CTPs in tandem on the carboxy terminus, SEQ ID NO: 21, expressed in CHO cells (protein, OXM-CTP-CTP) LEDMATGSRTSLLLAFGLLCLPWLQEGSAHSQGTFTSDYSKYLDSRRAQDFVQWLMNTKRNRNNIASSSSKAPPPSLPSPSRLPGPSDTPILPQSSSSKAPPPSLPSPSRLPGPSDTPILPQ | 702.10 |
| CTP-CTP-OXM: oxyntomodulin with two CTPs on the amino terminus, SEQ ID NO: 23 (protein, CTPx2-OXM) MATGSRTSLLLAFGLLCLPWLQEGSASSSSKAPPPSLPSPSRLPGPSDTPILPQSSSSKAPPPSLPSPSRLPGPSDTPILPQHSQGTFTSDYSKYLDSRRAQDFVQWLMNTKRNRNNIARSGCGRGTLGLMGLPFTARFP | 129.85 |

Now, please, on to the next molecule.
# input Read the entry CTP-OXM-CTP-CTP: oxyntomodulin with one CTP on the amino terminus and two on the carboxy terminus, SEQ ID NO: 15 (protein, CTP-OXM-CTP-CTP) MATGSRTSLLLAFGLLCLPWLQEGSASSSSKAPPPSLPSPSRLPGPSDTPILPQHSQGTFTSDYSKYLDSRRAQDFVQWLMNTKRNRNNIASSSSKAPPPSLPSPSRLPGPSDTPILPQSSSSKAPPPSLPSPSRLPGPSDTPILPQ and write its reported AUC∞.
# output 320.86
